target: pseudo-kinase domain (JH2, amino-acids 536-812 with 3 surface mutations W659A, W777A, F794H) of human Wild Type JAK2 (Homo sapiens, UniProt O60674, F794H/W659A/W777A); construct: pseudo-kinase domain (JH2, amino-acids 536-812 with 3 surface mutations W659A, W777A, F794H); His (C); Avi (biotinylated) (C); assay: JAK2 LanthaScreen JH2-WT binding assay; conditions: 50 nM tracer, 1 hour at 25° C., read-out: JH2 BIND WT IC50
Sequence (O60674 536-812 W659A/W777A/F794H): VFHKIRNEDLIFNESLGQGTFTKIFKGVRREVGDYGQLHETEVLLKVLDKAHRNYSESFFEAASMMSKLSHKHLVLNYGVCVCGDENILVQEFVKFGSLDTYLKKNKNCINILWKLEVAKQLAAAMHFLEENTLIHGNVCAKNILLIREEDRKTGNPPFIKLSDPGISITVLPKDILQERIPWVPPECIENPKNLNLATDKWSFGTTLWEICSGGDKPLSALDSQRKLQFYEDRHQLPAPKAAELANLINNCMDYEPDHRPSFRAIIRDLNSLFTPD
Documented IC50 across a set of molecules

# Compound smiles, Recorded result
records = [
    ("COC(=O)N[C@@H]1CC[C@@H](n2c(=O)ncc3cnc4[nH]c(-c5cnn(C)c5)c(-c5ccc6c(cnn6C)c5)c4c32)C1", "100 to 500 nM"),
    ("COC(=O)N[C@H]1C[C@H](N2C(=O)NCc3cnc4[nH]c(-c5cc(C)nc(C)c5)c(-c5ccc6c(cnn6C(C)C)c5)c4c32)C1", "10 to 100 nM"),
]

## Task For CC(C)n1ncc2cc(-c3c(-c4cnn(C)c4)[nH]c4ncc5c(c34)N([C@H]3C[C@@H](NC(=O)c4nc(C(F)(F)F)cs4)C3)C(=O)NC5)ccc21 , what is its reported IC50?
## Result 100 to 500 nM

* * *

target: pseudo-kinase domain (JH2, amino-acids 536-812 with 3 surface mutations W659A, W777A, F794H) of human V617F mutant JAK2 (Homo sapiens, UniProt O60674, F794H/V617F/W659A/W777A); construct: pseudo-kinase domain (JH2, amino-acids 536-812 with 3 surface mutations W659A, W777A, F794H); His (C); Avi (biotinylated) (C); experiment: JAK2 LanthaScreen JH2-V617F binding assay; settings: 50 nM tracer, 1 hour at 25° C., read-out: JH2 BIND V617F IC50
Sequence (O60674 536-812 V617F/W659A/W777A/F794H): as the sequence (O60674 536-812 W659A/W777A/F794H) above, with V82F counted along it
pIC50: −log10 of the molar value.
Measurement name: pIC50

# Compound smiles, pIC50
records = [
    ("CNc1nc(=O)n([C@@H]2CC[C@@H](NC(=O)OC)C2)c2c1cnc1[nH]c(-c3cnn(C)c3)c(-c3ccc4c(cnn4C(C)C)c3)c12", "7.00 to 8.00"),
    ("COC(=O)N[C@H]1C[C@H](N2C(=O)NCc3cnc4[nH]c(-c5ccc(CN6CCOCC6)cc5)c(-c5ccc6c(cnn6C(C)C)c5)c4c32)C1", "≥ 8.00"),
    ("CC(=O)N1CCC(N2C(=O)NCc3cnc4[nH]c(-c5cnn(C)c5)c(-c5ccc6c(cnn6C(C)C)c5)c4c32)CC1", "7.00 to 8.00"),
    ("COC(=O)N[C@@H]1CC[C@@H](N2C(=O)NCc3cnc4[nH]c(-c5cnn(C)c5)c(-c5cccc(F)c5)c4c32)C1", "6.30 to 7.00"),
    ("CC(=O)N[C@H]1C[C@@H](N2C(=O)NCc3cnc4[nH]c(-c5cnn(C)c5)c(-c5ccc6c(cnn6C(C)C)c5)c4c32)C1", "7.00 to 8.00"),
]

## Task For CC(C)n1ncc2cc(-c3c(-c4cnn(C)c4)[nH]c4ncc5c(c34)N(C3CCC4(CC3)CN(S(=O)(=O)C3(C)CC3)C4)C(=O)NC5)ccc21 , what is its reported pIC50?
## Result 7.00 to 8.00

* * *

target: pseudo-kinase domain (JH2, amino-acids 536-812 with 3 surface mutations W659A, W777A, F794H) of human V617F mutant JAK2 (Homo sapiens, UniProt O60674, F794H/V617F/W659A/W777A); construct: pseudo-kinase domain (JH2, amino-acids 536-812 with 3 surface mutations W659A, W777A, F794H); His (C); Avi (biotinylated) (C); experiment: JAK2 LanthaScreen JH2-V617F binding assay; details: 50 nM tracer, 1 hour at 25° C., read-out: JH2 BIND V617F IC50
pIC50: −log10 of the molar value.
Documented pIC50 across a set of molecules

# Compound smiles, pIC50
data = [
    ("COC(=O)N[C@@H]1CC[C@@H](N2C(=O)NCc3cnc4[nH]c(-c5cnn(C)c5)c(-c5ccc6c(cnn6CCF)c5)c4c32)C1", "7.00 to 8.00"),
    ("CC(C)n1ncc2cc(-c3c(-c4cnn(C)c4)[nH]c4ncc5c(c34)N(C3CCN(S(C)(=O)=O)CC3)C(=O)NC5)ccc21", "7.00 to 8.00"),
    ("COC(=O)N[C@H]1C[C@H](N2C(=O)NCc3cnc4[nH]c(C5=CCN(C)CC5)c(-c5ccc6c(cnn6C(C)C)c5)c4c32)C1", "7.00 to 8.00"),
]

## Task For COC(=O)N[C@@H]1CC[C@@H](N2C(=O)NCc3cnc4[nH]c(-c5cnn(C)c5)c(-c5ccc6c(c5)COC6(C)C)c4c32)C1 , what is its reported pIC50?
## Result ≥ 8.00

## Task For COCc1ccc(-c2c(-c3cnn(C)c3)[nH]c3ncc4c(c23)N([C@@H]2CC[C@@H](NC(=O)OC)C2)C(=O)NC4)cc1 , what is its reported pIC50?
## Result 7.00 to 8.00

## Task For CC(C)n1ncc2cc(-c3c(-c4cnn(C)c4)[nH]c4ncc5c(c34)N([C@@H]3CC[C@@H](NC(=O)C4CC4)C3)C(=O)NC5)ccc21 , what is its reported pIC50?
## Result 7.00 to 8.00

## Task For CC(C)n1ncc2cc(-c3c(-c4cnn(C)c4)[nH]c4ncc5c(c34)N([C@H]3C[C@@H](NS(C)(=O)=O)C3)C(=O)NC5)ccc21 , what is its reported pIC50?
## Result 7.00 to 8.00

## Task For COC(=O)N[C@H]1C[C@@H](N2C(=O)NCc3cnc4[nH]c(-c5cnn(C)c5)c(-c5ccc6c(cnn6C(C)C)c5)c4c32)C1 , what is its reported pIC50?
## Result 7.00 to 8.00

* * *

Documented pIC50 across a set of compounds
target: pseudo-kinase domain (JH2, amino-acids 536-812 with 3 surface mutations W659A, W777A, F794H) of human Wild Type JAK2 (Homo sapiens, UniProt O60674, F794H/W659A/W777A); construct: pseudo-kinase domain (JH2, amino-acids 536-812 with 3 surface mutations W659A, W777A, F794H); His (C); Avi (biotinylated) (C); assay: JAK2 LanthaScreen JH2-WT binding assay; settings: 50 nM tracer, 1 hour at 25° C., read-out: JH2 BIND WT IC50
pIC50: −log10 of the molar value.

# Compound, Recorded result
records = [
    ("COC(=O)N[C@@H]1CC[C@@H](N2C(=O)NCc3cnc4[nH]c(-c5cnn(C)c5)c(-c5ccc(OC)cc5)c4c32)C1", "7.00 to 8.00"),
]

## Task For CNc1nc(=O)n([C@@H]2CC[C@@H](NC(=O)OC)C2)c2c1cnc1[nH]c(-c3cnn(C)c3)c(-c3ccc4c(cnn4C(C)C)c3)c12 , what is its reported pIC50?
## Result 7.00 to 8.00

## Task For CC(C)n1ncc2cc(-c3c(-c4cnn(C)c4)[nH]c4ncc5c(c34)N([C@@H]3CC[C@@H](NC(=O)C4CC4)C3)C(=O)NC5)ccc21 , what is its reported pIC50?
## Result 7.00 to 8.00

## Task For COC(=O)N[C@]1(C)CC[C@H](N2C(=O)NCc3cnc4[nH]c(-c5cnn(C)c5)c(-c5ccc6c(cnn6C(C)C)c5)c4c32)CC1 , what is its reported pIC50?
## Result 7.00 to 8.00

## Task For COC(=O)N[C@@H]1CC[C@@H](N2C(=O)NCc3cnc4[nH]c(-c5cnn(C)c5)c(-c5ccc6c(cnn6CC6CC6)c5)c4c32)C1 , what is its reported pIC50?
## Result ≥ 8.00

* * *

molecular target: catalytic domain (JH1, amino acids 826-1132) of human JAK2 (Homo sapiens, UniProt O60674); construct: catalytic domain (JH1, amino acids 826-1132) of human JAK2; FLAG (N); assay: JAK2 LanthaScreen JH1 binding assay; details: 50 nM tracer, 2 hours at 25° C., read-out: JH1 BIND IC50
Sequence (O60674 826-1132): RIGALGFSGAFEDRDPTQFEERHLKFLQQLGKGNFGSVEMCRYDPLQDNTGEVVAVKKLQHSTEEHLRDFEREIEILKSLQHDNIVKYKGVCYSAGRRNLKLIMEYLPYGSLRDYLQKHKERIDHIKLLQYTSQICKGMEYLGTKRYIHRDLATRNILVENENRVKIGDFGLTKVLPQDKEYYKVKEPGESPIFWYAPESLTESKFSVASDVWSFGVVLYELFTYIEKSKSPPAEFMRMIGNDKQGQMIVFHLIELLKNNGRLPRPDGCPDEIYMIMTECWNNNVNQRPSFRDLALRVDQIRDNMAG
pIC50: −log10 of the molar value.
Documented pIC50 across a set of molecules

The examples below pair each entry with its known result.
# Compound smiles, pIC50
rows = [
    ("CNc1nc(=O)n([C@@H]2CC[C@@H](NC(=O)OC)C2)c2c1cnc1[nH]c(-c3cnn(C)c3)c(-c3ccc4c(cnn4C(C)C)c3)c12", "< 6.00"),
    ("COC(=O)N[C@]1(C)CC[C@H](N2C(=O)NCc3cnc4[nH]c(-c5cnn(C)c5)c(-c5ccc6c(cnn6C(C)C)c5)c4c32)CC1", "< 6.00"),
    ("COC(=O)N[C@@H]1CC[C@@H](n2c(=O)[nH]c(=O)c3cnc4[nH]c(-c5cnn(C)c5)c(-c5ccc6c(cnn6C(C)C)c5)c4c32)C1", "< 6.00"),
]

## Task Item COC(=O)N[C@@H]1CC[C@@H](n2c(=O)ncc3cnc4[nH]c(-c5cnn(C)c5)c(-c5ccc6c(cnn6C)c5)c4c32)C1 with catalytic domain (JH1, amino acids 826-1132) of human JAK2 (Homo sapiens, UniProt O60674) - pIC50?
## Result < 6.00

## Task Item COC(=O)N[C@@H]1CC[C@@H](N2C(=O)NCc3cnc4[nH]c(-c5cnn(C)c5)c(-c5ccc6c(c5)COC6(C)C)c4c32)C1 with catalytic domain (JH1, amino acids 826-1132) of human JAK2 (Homo sapiens, UniProt O60674) - pIC50?
## Result 6.00 to 6.30

## Task Item CC(=O)N[C@H]1C[C@H](N2C(=O)NCc3cnc4[nH]c(-c5cnn(C)c5)c(-c5ccc6c(cnn6C(C)C)c5)c4c32)C1 with catalytic domain (JH1, amino acids 826-1132) of human JAK2 (Homo sapiens, UniProt O60674) - pIC50?
## Result < 6.00
